# target.of.assay: T1, human CD70, full length, on CHO cells (CHO-human CD70-B07) (human, UniProt P32970 1-193)
# T1 construct: whole, on cells; Stably transfected CHO cells; also called CHO-CD70
# T1 sequence (looked up): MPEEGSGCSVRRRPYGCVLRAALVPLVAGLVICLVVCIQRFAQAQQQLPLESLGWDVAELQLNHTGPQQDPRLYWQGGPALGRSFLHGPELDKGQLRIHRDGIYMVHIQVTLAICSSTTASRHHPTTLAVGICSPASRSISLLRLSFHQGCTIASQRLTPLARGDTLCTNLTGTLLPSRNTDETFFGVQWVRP
# procedure.text: flow cytometry, chimeric IgG on CHO-human CD70 cells
# Method: Different cells in logarithmic growth phase were taken, blocked with 3% BSA for 30 minutes, and plated to a 96-well U-plate at 5×10⁴ cells/100 μL. The centrifuge was performed at 1100 rpm for 3 minutes. The supernatant was discarded and the cells were gently tapped to be loosening. 50 μL of gradient diluted antibody was added (antibody concentration: from 30 μg/mL, 3-fold dilution for 5 gradients) per well, and incubated at 4° C. for 1 hour. […]
Assignment: determine reported EC50 for the given binders.
The figure you give is taken to be in nM; do not add the unit.

# input EC50 for 39H5 chimeric antibody (antibody, V domains shown) VH: EIQLVQSGPELKKPGETVKISCKASGYTFTNYGMNWVKQAPGQGLKWMGWINTYTGEPTYADDFTGRFAFSLETSASTAYLQINNLKNEDMAAYFCAREEDYRYVFNYWGQGTTLTVSS VL: DIQMIQSTSSLSASLGNRVTISCRASQDISNYLNWYQQKPDGTVKLLIYDTSRLHAGVPSRFSGSGSGTDYSLTISNLEQEDIATYFCQQGVTLPLTFGAGTKLEIK ?
# output 10.2

# input Report EC50 for 26G11 chimeric antibody (antibody, V domains shown) VH: QVQLQQSGPELVKPGASVKISCKTSGYTFADYTMHWVRQSQGKSLEWIGDIYPNDGGPNNNQKFKDKATLTVDKSSSTAYMELRSLTSEDSAVYYCARPFYYGNYAGFAFWGQGTLVTVSA VL: EMVLTQSPAIMSASPGEKVTMTCSASSSVSYMYWYQQKPGSSPRLLIYDTSNLASGVPVRFSGSGSGTSYSLTISRMEAEDAATYYCQQWSSYPLTFGAGTRLEIK please.
# output 22.5

# input Sample 27A3 chimeric antibody (antibody, V domains shown) VH: EVQLQESGPGLVQPSQSLSITCTVSGFSLTTYAVHWVRQSPGKGLEWLGVIWSTGITDYNADFISRLSISKDNSKSQVFFKMDSLQSDDTAIYFCARNHYYGNLNAMDYWGQGTSVTVSS VL: DIVLTQSPASLAVSLGQRATISCRASKSVSTSGYSFMHWYQQKPGQPPKLLIYLASNLESGVPARFSGSGSGTDFTLNIHPVEEEDAATYYCQHSRELPYTFGGGTKLEIK — what was its EC50?
# output 4.07

# input So what does the record say about EC50 for 12A1 chimeric antibody (antibody, V domains shown) VH: QVQLQQSGPGLVQPSQSLSITCTVSGFSLTTYAVHWVRQSPGKGLEWLGVIWSTGITDYNAAFISRLSISKDNSKSQVFFKMDSLQSDDTAIYFCARNPHYGNLNAMDYWGQGTSVTVSS VL: DIVLTQSPASLAVSLGQRATISCRASKSVSASGYTWMHWYQQKPGQAPKLLIYLASNLESGVPARFSGSGSGTDFTLNIHPVEEEDAATYYCQHSRELPPTFGGGTKLEIK ?
# output 7.55

# input Could you share which EC50 value was measured for 2B12 chimeric antibody (antibody, V domains shown) VH: QVQLQQSGPGLVQPSQSLSITCTVSGFSLTTYAVHWVRQSPGKGLEWLGVIWSTGITDYNAAFISRLSISKDNSKSQVFFKMNSLQSDDIAIYYCARNPYYGNLNAMDYWGQGTSVTVSS VL: DIVLTQSPASLAVSLGQRATISCRASKSVDTSGYSFMHWYQQKPGQPPKLLIYLASNLESGVPARFSGSGSGTDFTLNIHPVEEEDAATYYCQHSRELPLTFGAGTKLELK ?
# output 17.7
